system: HL-60(TB) leukemia; assay: NCI tumour cell line growth inhibition, 48 h
testReadout: TGI

>>> result("CCc1ccc(Nc2cc(=O)[nH]c(SCc3ccccc3)n2)cc1")
"> 100 µM"

Problem: Identify measured TGI obtained with HL-60(TB) leukemia for C=C1C(=O)O[C@@H]2C(=O)[C@@H](C)[C@@H]3C=CC(=O)[C@@]3(C)[C@@H](OC(=O)/C(C)=C\C)[C@H]12 .
Result: 0.415 µM

Problem: Identify measured TGI obtained with HL-60(TB) leukemia for O=CN1CCN(C(=O)c2cc(Cl)cc(Cl)c2)C1=S .
Result: 29.7 µM

Problem: Identify measured TGI obtained with HL-60(TB) leukemia for C=C1C(=O)O[C@H]2[C@H]1CC/C(Cn1cc(Cn3ccc4ccccc43)nn1)=C\CC[C@@]1(C)O[C@@H]21 .
Result: 3.79 µM

Problem: Identify measured TGI obtained with HL-60(TB) leukemia for CCOC(=O)c1ccc(N(CCOS(C)(=O)=O)CCOS(C)(=O)=O)cc1C .
Result: 51.2 µM

Problem: Identify measured TGI obtained with HL-60(TB) leukemia for COc1cc(C#N)cc(OC)c1OCCOCCOc1c(OC)cc(C#N)cc1OC .
Result: 85.7 µM

Problem: Identify measured TGI obtained with HL-60(TB) leukemia for Cc1cc(O)c(C(C)C)cc1CN1CCCCC1 .
Result: > 100 µM
